Target: DAT (D206C) (Homo sapiens, UniProt Q01959, D206C)
Sequence (Q01959 whole entry D206C): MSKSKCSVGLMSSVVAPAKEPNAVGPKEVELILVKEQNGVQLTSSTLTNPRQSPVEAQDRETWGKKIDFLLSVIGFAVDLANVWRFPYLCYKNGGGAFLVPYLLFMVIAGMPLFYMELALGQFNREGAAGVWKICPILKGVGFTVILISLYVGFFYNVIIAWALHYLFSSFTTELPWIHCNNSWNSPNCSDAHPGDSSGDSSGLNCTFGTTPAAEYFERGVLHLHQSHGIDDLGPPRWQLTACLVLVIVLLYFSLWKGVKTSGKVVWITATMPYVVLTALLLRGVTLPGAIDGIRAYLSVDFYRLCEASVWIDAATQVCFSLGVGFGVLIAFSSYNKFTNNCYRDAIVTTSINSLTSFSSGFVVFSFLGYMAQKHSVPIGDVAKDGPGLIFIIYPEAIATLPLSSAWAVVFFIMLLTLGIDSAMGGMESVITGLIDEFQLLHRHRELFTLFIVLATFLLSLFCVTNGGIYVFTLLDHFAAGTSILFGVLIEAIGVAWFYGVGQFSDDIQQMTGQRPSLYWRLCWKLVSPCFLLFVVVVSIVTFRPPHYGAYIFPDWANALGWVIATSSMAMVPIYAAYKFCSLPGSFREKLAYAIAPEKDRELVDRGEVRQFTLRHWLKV
Test: Zinc inhibition of [3H]MPP+ uptake in HEK293 cells transiently expressing DAT-D206C
Details: [3H]MPP+ uptake inhibition, HEK293 cells, DAT D206C, mean ± S.E.; read-out: High-affinity site: IC50 (Zn^2+)
reported.metric: pIC50
# pIC50 = -log10(concentration in molar units)

**Query** Hello, please tell me recorded pIC50 for this one: [Zn+2] [zinc]
**Result** 5.17

###

Target: DAT (D206A) (Homo sapiens, UniProt Q01959, D206A)
Construct: expressed in transfected cells; host or cells: HEK293 (transient, calcium phosphate)
Assay: Zinc inhibition of [3H]MPP+ uptake in HEK293 cells transiently expressing DAT-D206A
Type: cell-based
Details: [3H]MPP+ uptake inhibition, mean ± S.E., read-out: High-affinity site: IC50 (Zn^2+)
reported.metric: IC50 (nM)
Numbers only here, please. The scale is nM.

**Query** Hello, please tell me recorded IC50 for this one: [Zn+2]
**Result** 790
